Data provenance is PubChem BioAssay (NCI).

Reported growth inhibition values are given for each entry in this list.
- Procedure Text: NCI Yeast Anticancer Drug Screen. Data for the mec2-1 strain (AID 157)
- Reported Conditions: S. cerevisiae mec2-1 strain, at 50.0 µM, active compounds read high
The panel holds about 79,000 compounds, 15% with a hit somewhere; the sample as a whole holds those more often.
Measurement Name: growth inhibition (%)

[[record]]
compound = "O=[N+]([O-])c1cc(Cl)c(Cl)c(Cl)c1Cl"
measurement_name = "growth inhibition"
number = 3.4

[[record]]
compound = "C(=C(c1ccccc1)c1ccccc1)N1CCOCC1"
measurement_name = "growth inhibition"
number = -5.5

[[record]]
compound = "COCCCNC1=C(C#N)C(=O)NC(c2cccc([N+](=O)[O-])c2)S1 (stereo unspecified)"
measurement_name = "growth inhibition"
number = -27.4

[[record]]
compound = "CCOC(=O)NN(C(=O)OCC)c1c(NC)n(C)c(=O)n(C)c1=O"
measurement_name = "growth inhibition"
number = 7.1

[[record]]
compound = "Cc1cc(-c2cc(C)c(N)cc2S(=O)(=O)O)c(S(=O)(=O)O)cc1N"
measurement_name = "growth inhibition"
number = -23.4

[[record]]
compound = "CCCCN(CCCC)c1ccc(N=C(C#N)c2ccc(N(CCCC)CCCC)cc2)cc1"
measurement_name = "growth inhibition"
number = -14.2

[[record]]
compound = "CC(=O)NNC(=S)/N=C/C(C(=O)Nc1ccc([N+](=O)[O-])cc1)=C(\\C)O"
measurement_name = "growth inhibition"
number = 4.4

[[record]]
compound = "N/N=C1/C=Cc2cccc3cccc1c23"
measurement_name = "growth inhibition"
number = -37.2

[[record]]
compound = "C(=N\\Nc1nc2ccccc2s1)/c1cccs1"
measurement_name = "growth inhibition"
number = 33

[[record]]
compound = "COC1CCC(C(C)=O)C(C#N)(C#N)C1(C#N)C#N (stereo unspecified)"
measurement_name = "growth inhibition"
number = -1.25

[[record]]
compound = "NS(=O)(=O)c1ncc(C(=O)N2CCN(Cc3ccccc3)CC2)[nH]1"
measurement_name = "growth inhibition"
number = -7.75


* * *

- Procedure Text: NCI Yeast Anticancer Drug Screen. Data for the mec2-1 strain (AID 157)
- Reported Conditions: S. cerevisiae mec2-1 strain, at 50.0 µM, active compounds read high
The panel holds about 79,000 compounds, 15% with a hit somewhere; the sample as a whole holds those more often. Calls of active or inactive are those of the source. Rule as the data show it: active = growth inhibition above about 70%; inactive = the rest.
Measurement Name: growth inhibition

[[record]]
compound = "Cc1ccc(C)c(NCc2ccccc2)c1"
measurement_name = "growth inhibition"
result = "20.1% (inactive)"

[[record]]
compound = "CC(O)(CNS(=O)(=O)c1ccccc1)c1ccccc1 (stereo not drawn)"
measurement_name = "growth inhibition"
result = "8.8% (inactive)"

[[record]]
compound = "C=C(C(N)=O)c1ccc([N+](=O)[O-])o1"
measurement_name = "growth inhibition"
result = "44.7% (inactive)"

[[record]]
compound = "Cc1c(C)n(COCCO)c2ncnc(N)c12"
measurement_name = "growth inhibition"
result = "-37.1% (inactive)"

[[record]]
compound = "C[C@]1(CO)[C@H]2CC[C@@]34C=C[C@@](CO)(CC[C@H]3[C@]2(C)CC[C@H]1O)C4"
measurement_name = "growth inhibition"
result = "1.05% (inactive)"

[[record]]
compound = "BrCCCCOc1ccccc1"
measurement_name = "growth inhibition"
result = "2.65% (inactive)"

[[record]]
compound = "N#C/C(=C\\c1ccc(C#N)cc1)C(=O)O"
measurement_name = "growth inhibition"
result = "-3.1% (inactive)"

[[record]]
compound = "S=C(NCCS)Nc1ccccc1"
measurement_name = "growth inhibition"
result = "-11.4% (inactive)"

[[record]]
compound = "C(=N[C@H]1CCCC[C@H]1N=Cc1ccc[nH]1)c1ccc[nH]1"
measurement_name = "growth inhibition"
result = "-3.6% (inactive)"

[[record]]
compound = "COc1ccc(C2=NOC3COC4C=CC=CC4OCC23)cc1 (stereo not drawn)"
measurement_name = "growth inhibition"
result = "-22.1% (inactive)"

[[record]]
compound = "C=Cc1cc2c(cc1O)CC[C@@H]1[C@@H]2CC[C@]2(C)[C@@H](O)CC[C@@H]12"
measurement_name = "growth inhibition"
result = "17.4% (inactive)"

[[record]]
compound = "CC1CCCCC[N+]1(C)CCO (stereo not drawn)"
measurement_name = "growth inhibition"
result = "-7.15% (inactive)"

[[record]]
compound = "Cc1ccc2ccccc2c1CC(=O)O"
measurement_name = "growth inhibition"
result = "36.6% (inactive)"


* * *

Reported growth inhibition values are given for each entry in this list.
- Procedure Text: NCI Yeast Anticancer Drug Screen. Data for the cln2 rad14 strain (AID 165);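 note: 0% = growth equal to vehicle treated cultures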
- Reported Conditions: S. cerevisiae cln2 rad14 strain, at 50.0 µM, active compounds read high
About 79,000 compounds went through this panel and 15% of them were active in at least one assay; those are over-represented in the sample as a whole.
Measurement Name: growth inhibition (%)

[[record]]
compound = "O=[N+]([O-])c1ccc(Sc2cccs2)c([N+](=O)[O-])c1"
number = 4.1

[[record]]
compound = "O=P(O)(O)Oc1ccc(NCCO)cc1"
number = 17.4

[[record]]
compound = "Cc1cc(S(=O)(=O)Nc2n[nH]c(Nc3ccc4ccccc4c3)n2)c(S)cc1Cl"
number = 36.5

[[record]]
compound = "O=C(CNOCc1ccccc1)OCc1ccccc1"
number = -6.8

[[record]]
compound = "CCc1cccc(CC)c1N1C(=O)C(=O)C(C(C)=O)C1=O (stereo unspecified)"
number = -24.5

[[record]]
compound = "c1ccc(-c2ccc(-c3cc4ccccc4c4ccccc34)cc2)cc1"
number = -5.8

[[record]]
compound = "O=c1n(-c2ccccc2)c(=O)n2n1C1C=CC2C23C=CC12CCCC3 (stereo unspecified)"
number = 12

[[record]]
compound = "CCOC(=O)c1ncn2c1[nH]c(=O)c1ccccc12"
number = 1.2

[[record]]
compound = "CCCOc1ncnc2nc[nH]c12"
number = -6.4

[[record]]
compound = "CCCC(F)C(=O)OCC (stereo unspecified)"
number = -9.35

[[record]]
compound = "N#CC(/C(=N\\NC(=O)c1ccncc1)C(=O)Nc1ccc([N+](=O)[O-])cc1[N+](=O)[O-])c1nc(-c2ccc(Br)cc2)cs1 (stereo unspecified)"
number = 7.6


* * *

- Procedure Text: NCI Yeast Anticancer Drug Screen. Data for the sgs1 mgt1 strain (AID 161);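 note: 0% = growth of cultures given vehicle only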
- Reported Conditions: S. cerevisiae sgs1 mgt1 strain, at 50.0 µM, active compounds read high
The panel holds about 79,000 compounds, 15% with a hit somewhere; the sample as a whole holds those more often. Where a SMILES comes first, the peptide text is derived from it. [ ]: non-standard residue; d: D form. The star is where a group is joined. Ac5c = NC1(C(=O)O)CCCC1; Cbz = O=C(OCc1ccccc1)*; Boc = CC(C)(C)OC(=O)*; tBu = CC(C)(C)*
Measurement Name: growth inhibition (%)

[[record]]
compound = "COC(=O)C1(NC(=O)C(Cc2ccccc2)NC(=O)C(NC(=O)C(CCCCNC(=O)OC(C)(C)C)NC(=O)C(Cc2c[nH]c3ccccc23)NC(=O)C(Cc2ccccc2)NC(=O)OCc2ccccc2)C(C)OC(C)(C)C)CCCC1 (stereo not drawn) (Cbz-FWK(Boc)T(tBu)F[Ac5c]-OMe; configuration not given here)"
number = -26.6

[[record]]
compound = "CCOC(=O)C1(C(=O)OCC)OC(=O)NC2=C1CCCC2"
number = -8.6

[[record]]
compound = "COC(=O)[C@H](Cc1c[nH]c2ccccc12)NP(=O)(OCCC#N)OCC1OC(n2cc(C)c(=O)[nH]c2=O)CC1N=[N+]=[N-] (stereo partly drawn)"
number = -23.4


* * *

- Procedure Text: NCI Yeast Anticancer Drug Screen. Data for the sgs1 mgt1 strain (AID 161);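 note: 0% = growth of cultures given vehicle only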
- Reported Conditions: S. cerevisiae sgs1 mgt1 strain, at 50.0 µM, active compounds read high
- Method: Growth inhibition of yeast strains with defined genetic alterations is measured as a screen for potential anti-cancer activity. Selected strains with alterations in DNA damage repair or cell cycle control were exposed to compounds and growth inhibition was measured relative to vehicle treated controls. The strain used in this assay is sgs1 mgt1
About 79,000 compounds went through this panel and 15% of them were active in at least one assay; those are over-represented in the sample as a whole. Calls of active or inactive are those of the source. Rule as the data show it: active = growth inhibition above about 70%; inactive = the rest.
Measurement Name: growth inhibition

[[record]]
query_smiles = "Cc1ccc(NC(=O)Oc2ccc(Br)cc2)c([N+](=O)[O-])c1"
result = "16.3% (inactive)"

[[record]]
query_smiles = "C1C[O][Ge]2([O]1)[O]CC[O]2"
result = "-16.2% (inactive)"

[[record]]
query_smiles = "O=C(c1ccc(F)cc1)c1ccc2ccccc2c1C(=O)O"
result = "13.1% (inactive)"

[[record]]
query_smiles = "CCN(CC)c1ccc(N=C2C=CC(=O)C(NC(C)=O)=C2)c(C)c1"
result = "29.2% (inactive)"

[[record]]
query_smiles = "CC1=C2C(=O)O[C@@H](c3ccoc3)[C@]2(C)CCC1"
result = "14.1% (inactive)"

[[record]]
query_smiles = "CCOC(=O)c1c[nH]c2c(C(F)(F)F)cccc2c1=O"
result = "1.55% (inactive)"

